- System: Escherichia coli
- EXPERIMENTAL_DETAILS: Antimicrobial activity against Escherichia coli NCTC 8196 after 24 hrs by agar diffusion assay
- Type: functional
Measured inhibition zone (IZ) accompanies every entry in the list below.
ENDPOINT: inhibition zone (IZ) (mm)

{"MOLECULE": "CC(=O)/C=C/[C@@]1(O)[C@H](C)C[C@H](O)CC1(C)C [BOSCIALIN]", "ENDPOINT": "inhibition zone (IZ)", "EXPERIMENTAL_VALUE": 1}
{"MOLECULE": "CC(=O)/C=C/[C@]1(O)[C@@H](C)C[C@@H](O)CC1(C)C", "ENDPOINT": "inhibition zone (IZ)", "EXPERIMENTAL_VALUE": 2}
{"MOLECULE": "CC(=O)/C=C/[C@@]1(O)[C@@H](C)C[C@@H](O)CC1(C)C", "ENDPOINT": "inhibition zone (IZ)", "EXPERIMENTAL_VALUE": 1}
{"MOLECULE": "CC(=O)/C=C/[C@]1(O)[C@H](C)C[C@H](O)CC1(C)C [EPIBOSCIALIN]", "ENDPOINT": "inhibition zone (IZ)", "EXPERIMENTAL_VALUE": 1.5}

* * *

- EXPERIMENTAL_DETAILS: Cytotoxicity against human HT-29 cells
- Format: cell-based
- CONDITION_LABEL: human, HT-29 cells; read-out: MIC
ENDPOINT: MCC (µg/mL)

{"COMPOUND": "CC(=O)/C=C/[C@]1(O)[C@H](C)C[C@H](O)CC1(C)C [EPIBOSCIALIN]", "OUTPUT_UNIT": "µg/mL", "READOUT_RELATION": "=", "EXPERIMENTAL_VALUE": 56}
{"COMPOUND": "CC(=O)/C=C/[C@@]1(O)[C@@H](C)C[C@@H](O)CC1(C)C", "OUTPUT_UNIT": "µg/mL", "READOUT_RELATION": ">", "EXPERIMENTAL_VALUE": 100}
{"COMPOUND": "CC(=O)/C=C/[C@]1(O)[C@@H](C)C[C@@H](O)CC1(C)C", "OUTPUT_UNIT": "µg/mL", "READOUT_RELATION": "=", "EXPERIMENTAL_VALUE": 56}
{"COMPOUND": "Nc1nc(N)nc(Nc2ccc([As]3SCC(CO)S3)cc2)n1 (stereo not given)", "OUTPUT_UNIT": "µg/mL", "READOUT_RELATION": "=", "EXPERIMENTAL_VALUE": 11}
{"COMPOUND": "CC(=O)/C=C/[C@@]1(O)[C@H](C)C[C@H](O)CC1(C)C", "OUTPUT_UNIT": "µg/mL", "READOUT_RELATION": ">", "EXPERIMENTAL_VALUE": 100}

* * *

- System: Corynebacterium xerosis
- EXPERIMENTAL_DETAILS: Antimicrobial activity against Corynebacterium xerosis ATCC 373 after 24 hrs by agar diffusion assay
- Format: functional
Measured inhibition zone (IZ) accompanies every entry in the list below.

{"MOLECULE": "CC(=O)/C=C/[C@]1(O)[C@H](C)C[C@H](O)CC1(C)C [EPIBOSCIALIN]", "inhibition zone (IZ) / mm": 12}
{"MOLECULE": "CC(=O)/C=C/[C@@]1(O)[C@H](C)C[C@H](O)CC1(C)C", "inhibition zone (IZ) / mm": 2}
{"MOLECULE": "CC(=O)/C=C/[C@@]1(O)[C@@H](C)C[C@@H](O)CC1(C)C", "inhibition zone (IZ) / mm": 3}
{"MOLECULE": "CC(=O)/C=C/[C@]1(O)[C@@H](C)C[C@@H](O)CC1(C)C", "inhibition zone (IZ) / mm": 13}

The measurements presented in this section are drawn from ChEMBL document CHEMBL1150877.
